# assayed system: Tau40 P301L protein (human)
# assay name: cell-based or functional assay
Square brackets hold non-standard residues; d marks the D form. Ends that are not written are not given here.
Let's look at some binders and their measured IC50, Tau40 assay (ThT).
Your answer should be a plain number; it is taken to be in nM.

{"binder": "[dW][dR][dL][dR][dM][dH][dW] [wrlrmhw (PEPTIDE ID NO: 260)]", "result unit": "nM", "IC50, Tau40 assay (ThT)": 1280}
{"binder": "[dW][dW][dL][dR][dI][dH][dW] [wwlrihw (PEPTIDE ID NO: 425)]", "result unit": "nM", "IC50, Tau40 assay (ThT)": 940}
{"binder": "[dL][dK][dI][dW][dI][dY][dY][dH] [lkiwiyyh (PEPTIDE ID NO: 237)]", "result unit": "nM", "IC50, Tau40 assay (ThT)": 970}
{"binder": "[dW][dR][dL][dH][dV][dR][dW][dW] [wrlhvrww (PEPTIDE ID NO: 292)]", "result unit": "nM", "IC50, Tau40 assay (ThT)": 1820}
{"binder": "[dY][dL][dK][dI][dR][dI][dH][dY] [ylkirihy (PEPTIDE ID NO: 256)]", "result unit": "nM", "IC50, Tau40 assay (ThT)": 1190}
{"binder": "[dW][dI][dK][dI][dW][dR] [wikiwr (PEPTIDE ID NO: 29)]", "result unit": "nM", "IC50, Tau40 assay (ThT)": 2020}

Attention now turns to another entry.
Problem: Could you share which IC50, Tau40 assay (ThT) value was measured for [dW][dR][dL][dK][dV][dR][dR][dW] [wrlkvrrw (PEPTIDE ID NO: 278)] ?
Solution: 1580
